# Test system: HL-60 (promyelocytic leukemia)
# Experiment summary: Calcein AM cytotoxicity assay, HL60
# Assay type: cell-based, human
# Study conditions: HL60, 72 hours
The compounds listed here are annotated with their log10(GI50).
The figures below represent log10 of GI50, where GI50 is stated in µM.

Example results:
COc1ccc(CNc2ncnc3c2ncn3[C@@H]2O[C@H](COP(=O)(O)O)[C@@H](O)[C@H]2O)c(OC)c1 [Compound 32]
1.61
O=P(O)(O)OC[C@H]1O[C@@H](n2cnc3c(NCc4ccc(Cl)c(Cl)c4)ncnc32)[C@H](O)[C@@H]1O [Compound 25]
0.00
COc1cccc(CNc2ncnc3c2ncn3[C@@H]2O[C@H](COP(=O)(O)O)[C@@H](O)[C@H]2O)c1OC [Compound 31]
1.96
O=P(O)(O)OC[C@H]1O[C@@H](n2cnc3c(NCc4cccc(O)c4)ncnc32)[C@H](O)[C@@H]1O [Compound 22]
1.28
O=P(O)(O)OC[C@H]1O[C@@H](n2cnc3c(NCc4cccc(F)c4)ncnc32)[C@H](O)[C@@H]1O [Compound 2]
-0.08
Cc1cccc(CNc2ncnc3c2ncn3[C@@H]2O[C@H](COP(=O)(O)O)[C@@H](O)[C@H]2O)c1 [Compound 13]
0.82

Now take the following compound into account.
Using known records, supply log10(GI50) for O=P(O)(O)OC[C@H]1O[C@@H](n2cnc3c(NCc4cc(F)cc(F)c4)ncnc32)[C@H](O)[C@@H]1O [Compound 37] 0.84

---

The molecules listed here are annotated with their GI50.
# Test system: HL-60 (promyelocytic leukemia)
# Experiment summary: Calcein AM cytotoxicity assay, HL60
# Assay type: cell-based, human
# Study conditions: HL60, 72 hours
Param answer (str): number followed by unit.

Example results:
COc1cccc(CNc2ncnc3c2ncn3[C@@H]2O[C@H](COP(=O)(O)O)[C@@H](O)[C@H]2O)c1 [Compound 16]
5.1 µM
COc1cc(CNc2ncnc3c2ncn3[C@@H]2O[C@H](COP(=O)(O)O)[C@@H](O)[C@H]2O)cc(OC)c1 [Compound 34]
19.8 µM
O=P(O)(O)OC[C@H]1O[C@@H](n2cnc3c(NCc4cccc(Cl)c4)ncnc32)[C@H](O)[C@@H]1O [Compound 5]
0.5 µM

Now take the following molecule into account.
Using known records, supply GI50 for O=P(O)(O)OC[C@H]1O[C@@H](n2cnc3c(NCc4ccc(O)cc4)ncnc32)[C@H](O)[C@@H]1O [Compound 23] 9.7 µM

---

# Tested on: HL-60 (promyelocytic leukemia)
# Experiment summary: Calcein AM cytotoxicity assay, HL60
# Assay type: cell-based, human
# Study conditions: HL60, 72 hours
Observed property: GI50 (nM)
Give the number; nM is assumed, so skip it.

COc1ccccc1CNc1ncnc2c1ncn2[C@@H]1O[C@H](COP(=O)(O)O)[C@@H](O)[C@H]1O [Compound 15]
2100
O=P(O)(O)OC[C@H]1O[C@@H](n2cnc3c(NCc4ccccc4Br)ncnc32)[C@H](O)[C@@H]1O [Compound 7]
5900

Now take the following compound into account.
Using known records, supply GI50 for O=P(O)(O)OC[C@H]1O[C@@H](n2cnc3c(NCc4ccc(F)cc4F)ncnc32)[C@H](O)[C@@H]1O [Compound 36] 2800
